Entries and their measured log10 koff follow.
Molecular target: T1, human HER-2 protein (soluble / recombinant, used in SPR) (human, UniProt P04626 23-652)
T1 construct: also called immobilized HER2 protein; recombinant HER-2
Test: SPR, immobilized HER2 protein
quantity: log10 koff (log10 of the value in s⁻¹)

- binder: "PFB1 Fab (Fab, V domains shown, Printed entries run through CL and CH1 (Fab chains); Label B1 tied to PFB1 by inference) VH: QVQLQESGGGLVQPGGSLRLSCAASGFTFSSFAMNWVRQAPGKGLEWVSTIGGSGDSTFYADPVKGRFTVSRDNSKNTLYLQMNSLRAEDTAVYYCAQAYGSGGHYFFAYWGQGTLVTVSS VL: DVVMTQSPLSLPVTPGEPASISCRSSQSLLHSNGNTYLDWYLQKPGQSPQVLIYSGSNRASGVPDRFSGSGSGTDFTLKISRVEAEDVGVYYCMQGTHWPPTFGQGTKVEIKR"
  log10 koff: -2.25
- binder: "PFE1 Fab (Fab, V domains shown, Printed entries run through CL and CH1 (Fab chains); Label E1 tied to PFE1 by inference) VH: EVQLVQSGGGVVQPGRSLRLSCAASGFTFSSYAMHWVRQAPGKGLEWVAVISYDGSNKYYADSVKGRFTISRDNSKNTLYLQMNSLRAEDTAVYYCARSRGYYGMDVWGQGTTVTVSS VL: DVVMTQSPLSLPVTLGQPASISCTSSQSLVYSDGNTYLNWFQQRPGQSPRRLIYKVSKRDSGVPDRFSGSGSGTDFTLKISRVEAEDVAIYYCMQGTHWPLTFGGGTKVEIKR"
  log10 koff: -1.89
- binder: "PFB4 Fab (Fab, V domains shown, Printed entries run through CL and CH1 (Fab chains); Label B4 tied to PFB4 by inference) VH: EVQLVQSGGGVVQPGRSLRLSCAASGFTFSSYGMHWVRQAPGKGLEWVAVISYDGSNKYYADSVKGRFTISRDDSKNTLYLQMNSLRAEDTAVYYCAKDRGYYGMDVWGQGTTVTVSS VL: QAVVIQEPSLTVSPGGTVTLTCGSTTGAVTSGHYPSWFQQKPGQAPRALIYSTSNKHSWTPARFSGSLLGGKAALTLSGVQPEDEAEYYCLLYYGGARVFGGGTKLTVLG"
  log10 koff: -1.49
- binder: "PFA2 Fab (Fab, V domains shown, Printed entries run through CL and CH1 (Fab chains); Label A2 tied to PFA2 by inference) VH: QVQLQQSGPGLVKPSQTLSLTCAISGESVSSAAAAWNWIRQSPSRGLEWLGRTYYRSKWYSEYAVSVKSRITINGDTSKNQVSLHLNAVTPEDTAIYYCVRGSIFDVWGQGTMVTVSS VL: EIVLTQSPLSLPVTPGEPASISCRSSQSLLHSDGNKYLDWYLQKPGQSPQLLIYLGSNRASGVPERFSGSGSGTDFTLKISRVEAEDVGVYYCMLGTHWPPMYIFGQGTKLEIKR"
  log10 koff: -2.66
- binder: "PFG2 Fab (Fab, V domains shown, Printed entries run through CL and CH1 (Fab chains); Label G2 tied to PFG2 by inference) VH: EVQLVQSGGGLVQPGGSLRLSCAASGFTFSSYAMSWVRQAPGKGLEWVSSISSSSSYIYYADSVKGRFTISRDNAKNSLYLQMNSLRAEDTAVYYCARDGSAWSRPYWGQGTLVTVSS VL: EIVLTQSPATLSLSPGERATLSCRASQSVSSYLAWYQQKPGQAPRLLIYDASNRATGIPARFSGSGSGTDFTLTISSLEPEDFAVYYCQQRSNWPLTFGGGTKVEIKR"
  log10 koff: -3.30
- binder: "PFD2 Fab (Fab, V domains shown, Printed entries run through CL and CH1 (Fab chains); Label D2 tied to PFD2 by inference) VH: QVQLQQWGAGLLKPSETLSLTCAVYGGSFSGYYWSWIRQPPGKGLEWIGEINHSGSTNYNPSLKSRVTISVDTSKNQFSLKLSSVTAADTAVYYCARGLPYYYFDYWGQGTLVTVSS VL: QSVVTQPPSVSGAPGQRVTISCTGRSANIGGFDVQWYRQLPGTAPQLLIYDNSNRPSGVPDRFSGSKSGTSATLAISGLQTGDEADYYCGTWDSYLNIWVFGGGTKLTVLS"
  log10 koff: -2.31
